This collection of values is drawn from patent US11919858B2.

# subject of test: DYRK1B (Homo sapiens, UniProt Q9Y463)
# Sequence (Q9Y463 whole entry, species assumed): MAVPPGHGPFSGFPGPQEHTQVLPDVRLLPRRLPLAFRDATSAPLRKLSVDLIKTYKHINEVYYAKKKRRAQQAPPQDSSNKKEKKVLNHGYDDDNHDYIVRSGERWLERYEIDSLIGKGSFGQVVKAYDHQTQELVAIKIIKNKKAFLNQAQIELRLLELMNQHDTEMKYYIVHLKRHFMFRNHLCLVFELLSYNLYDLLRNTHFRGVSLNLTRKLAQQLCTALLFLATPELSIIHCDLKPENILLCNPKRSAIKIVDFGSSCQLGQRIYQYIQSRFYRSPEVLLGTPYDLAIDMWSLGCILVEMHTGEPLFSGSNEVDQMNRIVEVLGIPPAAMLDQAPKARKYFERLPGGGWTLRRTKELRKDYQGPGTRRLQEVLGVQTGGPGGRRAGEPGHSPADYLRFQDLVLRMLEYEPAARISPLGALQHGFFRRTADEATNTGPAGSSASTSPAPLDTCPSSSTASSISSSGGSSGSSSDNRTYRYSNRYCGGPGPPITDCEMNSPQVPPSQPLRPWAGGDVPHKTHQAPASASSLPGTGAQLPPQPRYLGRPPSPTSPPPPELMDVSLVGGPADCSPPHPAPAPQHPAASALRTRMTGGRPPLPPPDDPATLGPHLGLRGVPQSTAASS
property label: Kd (µM)

O=C(Nc1ccncc1)c1ccc(CNC2=C(Cl)C(=O)c3ccccc3C2=O)cc1	1.4

====

# Tested on: HL-60
# method: Growth inhibition assay
# Type: cell-based
# stated conditions: Homo sapiens, HL-60; read-out: HL-60 IC50 (μM) Mean ± S.E.
property label: IC50 (µM)

Cn1ccc2c(NC(=O)c3ccc(CNC4=C(Cl)C(=O)c5ccccc5C4=O)cc3)ncnc21	2.68
O=C(Nc1ccc2cn[nH]c2c1)c1ccc(CNC2=C(Cl)C(=O)c3ccccc3C2=O)cc1	7.39

====

# subject of test: CSNK1D (Homo sapiens)
# Sequence (P48730 whole entry, species assumed): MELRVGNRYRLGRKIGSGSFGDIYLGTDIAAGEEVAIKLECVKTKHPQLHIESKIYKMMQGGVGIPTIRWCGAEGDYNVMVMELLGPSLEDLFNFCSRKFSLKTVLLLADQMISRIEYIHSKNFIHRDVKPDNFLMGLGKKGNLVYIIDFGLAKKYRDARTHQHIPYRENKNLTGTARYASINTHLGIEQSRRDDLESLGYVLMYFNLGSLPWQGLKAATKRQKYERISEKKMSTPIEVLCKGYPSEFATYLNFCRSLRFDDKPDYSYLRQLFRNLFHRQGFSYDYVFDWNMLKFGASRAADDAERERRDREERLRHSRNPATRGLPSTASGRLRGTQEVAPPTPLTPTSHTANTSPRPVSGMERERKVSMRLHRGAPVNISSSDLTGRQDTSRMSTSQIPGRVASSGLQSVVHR
property label: Kd (µM)

O=C(Nc1ccncc1)c1ccc(CNC2=C(Cl)C(=O)c3ccccc3C2=O)cc1	2

====

Documented IC50 across a set of molecules
# System: HL-60
# method: Growth inhibition assay
# Type: cell-based
# stated conditions: Homo sapiens, HL-60; read-out: HL-60 IC50 (μM) Mean ± S.E.
property label: IC50

O=C(Nc1cccc2ncccc12)c1ccc(CNC2=C(Cl)C(=O)c3ccccc3C2=O)cc1	2.23 µM
O=C(Nc1cccnc1)c1ccc(CNC2=C(Cl)C(=O)c3ccccc3C2=O)cc1	10 to 30 µM
O=C(Nc1ccc2[nH]ncc2c1)c1ccc(CNC2=C(Cl)C(=O)c3ccccc3C2=O)cc1	10 to 30 µM
Cc1cc(N)nn1C(=O)c1ccc(CNC2=C(Cl)C(=O)c3ccccc3C2=O)cc1	10 to 30 µM

====

# subject of test: JNK1 (Homo sapiens)
# Sequence (P45983 whole entry, species assumed): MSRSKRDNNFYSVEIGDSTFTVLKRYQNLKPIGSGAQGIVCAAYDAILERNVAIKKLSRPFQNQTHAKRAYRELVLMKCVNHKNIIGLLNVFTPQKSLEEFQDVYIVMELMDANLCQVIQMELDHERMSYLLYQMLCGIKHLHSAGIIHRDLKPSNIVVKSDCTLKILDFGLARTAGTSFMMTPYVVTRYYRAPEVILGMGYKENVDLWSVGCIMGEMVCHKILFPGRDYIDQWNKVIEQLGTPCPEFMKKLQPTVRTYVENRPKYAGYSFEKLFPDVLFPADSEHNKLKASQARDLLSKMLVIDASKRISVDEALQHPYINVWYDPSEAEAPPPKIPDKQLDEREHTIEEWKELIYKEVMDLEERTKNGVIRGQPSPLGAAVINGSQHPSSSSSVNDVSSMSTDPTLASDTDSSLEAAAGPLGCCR
# method: Protein kinase assay (Kinome assay)
# Type: binding
property label: Kd (µM)

O=C(Nc1ccncc1)c1ccc(CNC2=C(Cl)C(=O)c3ccccc3C2=O)cc1 [MPT0L056]	4.2

====

# subject of test: UniProt O75116
# Sequence (O75116 whole entry, species assumed): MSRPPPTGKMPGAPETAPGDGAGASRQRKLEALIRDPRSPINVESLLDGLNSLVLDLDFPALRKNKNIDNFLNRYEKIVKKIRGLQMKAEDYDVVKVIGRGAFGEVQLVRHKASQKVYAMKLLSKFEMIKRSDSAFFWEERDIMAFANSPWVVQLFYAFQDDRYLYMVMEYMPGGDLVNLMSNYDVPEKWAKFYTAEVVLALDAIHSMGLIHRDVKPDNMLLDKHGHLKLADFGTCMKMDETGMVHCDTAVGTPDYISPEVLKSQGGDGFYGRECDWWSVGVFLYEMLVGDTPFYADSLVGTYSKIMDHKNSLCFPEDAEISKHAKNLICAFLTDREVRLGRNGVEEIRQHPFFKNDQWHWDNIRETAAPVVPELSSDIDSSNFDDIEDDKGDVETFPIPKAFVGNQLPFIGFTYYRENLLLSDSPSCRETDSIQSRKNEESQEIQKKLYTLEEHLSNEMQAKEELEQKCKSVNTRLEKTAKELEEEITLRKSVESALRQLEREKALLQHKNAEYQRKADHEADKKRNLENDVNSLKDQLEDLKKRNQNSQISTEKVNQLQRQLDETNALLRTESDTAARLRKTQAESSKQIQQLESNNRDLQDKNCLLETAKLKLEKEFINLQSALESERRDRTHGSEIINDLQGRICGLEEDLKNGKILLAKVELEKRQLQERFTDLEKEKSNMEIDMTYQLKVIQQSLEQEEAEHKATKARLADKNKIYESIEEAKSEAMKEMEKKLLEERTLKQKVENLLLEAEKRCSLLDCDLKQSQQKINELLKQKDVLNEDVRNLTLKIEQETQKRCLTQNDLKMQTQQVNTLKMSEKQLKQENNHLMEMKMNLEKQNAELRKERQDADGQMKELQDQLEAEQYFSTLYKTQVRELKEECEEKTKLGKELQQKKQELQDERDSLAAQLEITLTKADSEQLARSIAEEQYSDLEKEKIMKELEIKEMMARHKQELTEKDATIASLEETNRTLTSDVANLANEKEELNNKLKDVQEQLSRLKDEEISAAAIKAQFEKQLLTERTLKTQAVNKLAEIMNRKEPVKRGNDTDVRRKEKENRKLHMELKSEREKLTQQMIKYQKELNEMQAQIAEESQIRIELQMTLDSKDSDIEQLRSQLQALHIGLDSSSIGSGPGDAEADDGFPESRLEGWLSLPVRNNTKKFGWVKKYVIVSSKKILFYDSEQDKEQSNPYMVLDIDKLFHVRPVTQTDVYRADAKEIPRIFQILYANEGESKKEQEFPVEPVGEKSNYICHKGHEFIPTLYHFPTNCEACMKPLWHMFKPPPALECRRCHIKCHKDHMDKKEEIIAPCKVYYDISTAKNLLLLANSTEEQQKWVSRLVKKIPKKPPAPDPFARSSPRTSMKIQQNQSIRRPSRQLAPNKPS
pKd: −log10 of the molar value.
property label: pKd

O=C(Nc1ccncc1)c1ccc(CNC2=C(Cl)C(=O)c3ccccc3C2=O)cc1	6.24

====

# subject of test: UniProt P53779
# Sequence (P53779 whole entry, species assumed): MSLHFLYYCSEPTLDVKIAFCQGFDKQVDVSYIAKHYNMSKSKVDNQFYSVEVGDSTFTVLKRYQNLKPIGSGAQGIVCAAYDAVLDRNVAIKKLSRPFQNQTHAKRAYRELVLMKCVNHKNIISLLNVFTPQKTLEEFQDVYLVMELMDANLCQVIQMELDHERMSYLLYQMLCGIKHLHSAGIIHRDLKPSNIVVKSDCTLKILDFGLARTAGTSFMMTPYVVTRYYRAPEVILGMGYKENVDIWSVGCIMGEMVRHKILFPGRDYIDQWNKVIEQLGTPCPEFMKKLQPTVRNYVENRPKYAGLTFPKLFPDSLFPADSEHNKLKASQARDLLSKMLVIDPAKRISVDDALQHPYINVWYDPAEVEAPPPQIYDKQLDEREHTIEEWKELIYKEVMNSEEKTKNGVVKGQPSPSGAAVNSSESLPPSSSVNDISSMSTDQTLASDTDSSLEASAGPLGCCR
property label: Kd (nM)

O=C(Nc1ccncc1)c1ccc(CNC2=C(Cl)C(=O)c3ccccc3C2=O)cc1 [MPT0L056]	430

====

Documented IC50 across a set of molecules
# Tested on: HL-60
# method: Growth inhibition assay
# Format: cell-based
# stated conditions: Homo sapiens, HL-60; read-out: HL-60 IC50 (μM) Mean ± S.E.
property label: IC50 (µM)

Cc1cc(NC(=O)c2ccc(CNC3=C(Cl)C(=O)c4ccccc4C3=O)cc2)c2ccccc2n1	2.68
Cc1cnc(NC(=O)c2ccc(CNC3=C(Cl)C(=O)c4ccccc4C3=O)cc2)s1	7.06
O=C(Nc1ccc2[nH]ccc2c1)c1ccc(CNC2=C(Cl)C(=O)c3ccccc3C2=O)cc1	8.92
O=C(Nc1cnccn1)c1ccc(CNC2=C(Cl)C(=O)c3ccccc3C2=O)cc1	7.27
O=C(Nc1cnc2ccccc2c1)c1ccc(CNC2=C(Cl)C(=O)c3ccccc3C2=O)cc1	7.93
O=C(Nc1ccncc1[N+](=O)[O-])c1ccc(CNC2=C(Cl)C(=O)c3ccccc3C2=O)cc1	5.42
O=C(Nc1nccs1)c1ccc(CNC2=C(Cl)C(=O)c3ccccc3C2=O)cc1	8.53
O=C(Nc1cccc2[nH]ccc12)c1ccc(CNC2=C(Cl)C(=O)c3ccccc3C2=O)cc1	4.06
O=C(Nc1cnc2[nH]ncc2c1)c1ccc(CNC2=C(Cl)C(=O)c3ccccc3C2=O)cc1	7.31
O=C(Nc1ccc2ncccc2c1)c1ccc(CNC2=C(Cl)C(=O)c3ccccc3C2=O)cc1	8.09
O=C(Nc1cccc2cccnc12)c1ccc(CNC2=C(Cl)C(=O)c3ccccc3C2=O)cc1	6.43
